# testedOn: T1, CD52 peptide #741
# T1 construct: also called CD52 peptide #741 chip
# assayInfo: BIACORE (SPR), CD52 peptide #741 chip, preliminary constant; antibody after 4 weeks at 45C, pH 7.2 in PBS
readout: Kd (nM)
Field: numeric (nM). Do not append units.

Reported Kd, binder Ab26 (antibody, human IgG1, kappa, V domains shown, Humanized anti-human CD52 monoclonal antibody; made in HEK293 and in CHO cells; also called CTL; CTL1) VH: EVQLVESGGGLVQPGGSLRLSCAASGFPFSNYWMNWVRQAPGKGLEWVGQIRLKSNNYATHYAESVKGRFTISRDDSKNSLYLQMNSLKTEDTAVYYCTPIDYWGQGTTVTVSS VL: DIVMTQTPLSLSVTPGQPASISCKSSQSLLYSNGKTYLNWVLQKPGQSPQRLIYLVSKLDSGVPDRFSGSGSGTDFTLKISRVEAEDVGVYYCVQGSHFHTFGQGTKLEIKR : ____
25.4

Item under review: Ab21 (antibody, human IgG1, kappa, V domains shown) VH: EVQLVESGGGLVQPGGSLRLSCAASGFPFSNYWMNWVRQAPGKGLEWVGQIRLKSNNYATHYAESVKGRFTISRDDSKNSLYLQMNSLKTEDTAVYYCTPIDYWGQGTTVTVSS VL: DIVMTQTPLSLSVTPGQPASISCKSSQSLLYSNRKTYLNWVLQKPGQSPQRLIYLVSKLDSGVPDRFSGSGSGTDFTLKISRVEAEDVGVYYCVQGSHFHTFGQGTKLEIKR . Reported Kd?
4.15

Given Ab22 (antibody, human IgG1, kappa, V domains shown) VH: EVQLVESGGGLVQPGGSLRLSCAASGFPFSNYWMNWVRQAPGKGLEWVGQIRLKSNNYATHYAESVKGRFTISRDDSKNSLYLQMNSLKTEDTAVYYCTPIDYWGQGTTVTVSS VL: DIVMTQTPLSLSVTPGQPASISCKSSQSLLYSNSKTYLNWVLQKPGQSPQRLIYLVSKLDSGVPDRFSGSGSGTDFTLKISRVEAEDVGVYYCVQGSHFHTFGQGTKLEIKR , state its recorded Kd.
187

Name the reported Kd value associated with the binder Ab10 (antibody, human IgG1, kappa, V domains shown) VH: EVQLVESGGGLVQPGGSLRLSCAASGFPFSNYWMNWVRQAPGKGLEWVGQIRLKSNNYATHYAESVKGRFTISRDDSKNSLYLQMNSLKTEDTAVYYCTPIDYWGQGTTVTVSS VL: DIVMTQTPLSLSVTPGQPASISCKSSQSLLYSNAKTYLNWVLQKPGQSPQRLIYLVSKLDSGVPDRFSGSGSGTDFTLKISRVEAEDVGVYYCVQGSHFHTFGQGTKLEIKR
144

Quick one: Kd for Ab24 (antibody, human IgG1, kappa, V domains shown) VH: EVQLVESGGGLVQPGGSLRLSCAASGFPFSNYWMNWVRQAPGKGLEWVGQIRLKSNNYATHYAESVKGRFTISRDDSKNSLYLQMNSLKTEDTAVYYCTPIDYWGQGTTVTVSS VL: DIVMTQTPLSLSVTPGQPASISCKSSQSLLYSNVKTYLNWVLQKPGQSPQRLIYLVSKLDSGVPDRFSGSGSGTDFTLKISRVEAEDVGVYYCVQGSHFHTFGQGTKLEIKR ?
17.2

Find the recorded Kd belonging to Ab14 (antibody, human IgG1, kappa, V domains shown) VH: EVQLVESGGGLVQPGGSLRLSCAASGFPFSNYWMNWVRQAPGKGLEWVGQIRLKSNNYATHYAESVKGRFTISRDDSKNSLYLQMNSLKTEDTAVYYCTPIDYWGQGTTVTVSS VL: DIVMTQTPLSLSVTPGQPASISCKSSQSLLYSNHKTYLNWVLQKPGQSPQRLIYLVSKLDSGVPDRFSGSGSGTDFTLKISRVEAEDVGVYYCVQGSHFHTFGQGTKLEIKR and report it.
33.3

Proceed to the following item.
Any idea what Kd was measured for Ab11 (antibody, human IgG1, kappa, V domains shown) VH: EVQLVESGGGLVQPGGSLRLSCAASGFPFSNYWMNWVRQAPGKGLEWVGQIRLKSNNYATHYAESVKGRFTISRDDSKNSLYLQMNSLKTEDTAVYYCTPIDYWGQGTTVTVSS VL: DIVMTQTPLSLSVTPGQPASISCKSSQSLLYSNDKTYLNWVLQKPGQSPQRLIYLVSKLDSGVPDRFSGSGSGTDFTLKISRVEAEDVGVYYCVQGSHFHTFGQGTKLEIKR ?
8.85
